Reported Relative fold of histamine release in vitro values for the following compounds.
- Tested on: rat peritoneal mast cells
- experimental.protocol: In vitro histamine release in rat peritoneal mast cells (histamine ELISA)
- Format: cell-based
- condition.notes: test compound final concentration 10 μM, 15 min at 37° C., relative to PBS buffer (1.00)
Square brackets hold non-standard residues; d marks the D form. Peptide text beside a SMILES is read from it. * marks the point of attachment. Cys(free,S-linked) = N[C@@H](CS*)C(=O)O; dAbu = CC[C@@H](N)C(=O)O
Reply briefly: the number, and no unit.

Solved cases below.
1. CC[C@@H](NC(=O)[C@@H](CCCNC(=N)N)NC(=O)[C@@H](CCCNC(=N)N)NC(=O)[C@@H](CSSC[C@H](N)C(=O)O)NC(C)=O)C(=O)N[C@H](CCCNC(=N)N)C(=O)N[C@H](C)C(=O)N[C@H](CCCNC(=N)N)C(N)=O [Compound 17, Ac-c(C)-r-r-(D-Abu)-r-a-r-NH2] (Ac-[dC](Cys(free,S-linked))[dR][dR][dAbu][dR][dA][dR]-NH2) :: 0.97
2. CC(=O)N[C@H](CSSC[C@H](N)C(=O)O)C(=O)N[C@H](C)C(=O)N[C@H](CCCNC(=N)N)C(=O)N[C@H](CCCNC(=N)N)C(=O)N[C@H](CCCNC(=N)N)C(=O)N[C@H](C)C(=O)N[C@H](CCCNC(=N)N)C(N)=O [Etelcalcetide, Ac-c(C)-a-r-r-r-a-r-NH2, reference compound] :: 1.70

The record that follows has no Relative fold of histamine release in vitro shown yet.
Record lookup: for rat peritoneal mast cells, what Relative fold of histamine release in vitro belongs to CC(=O)N[C@H](CSSC[C@H](N)C(=O)O)C(=O)N[C@H](CCCNC(=N)N)C(=O)N[C@H](CCCNC(=N)N)C(=O)N[C@H](Cc1ccc(O)cc1)C(=O)N[C@H](CCCNC(=N)N)C(=O)N[C@H](C)C(=O)N[C@H](CCCNC(=N)N)C(N)=O [Compound 24, Ac-c(C)-r-r-y-r-a-r-NH2] (Ac-[dC](Cys(free,S-linked))[dR][dR][dY][dR][dA][dR]-NH2) ?
3.18

====

- measurement.target: human calcium-sensing receptor (CaSR) (Homo sapiens)
- Construct: host or cells: HEK293
- Sequence (P41180 20-1078): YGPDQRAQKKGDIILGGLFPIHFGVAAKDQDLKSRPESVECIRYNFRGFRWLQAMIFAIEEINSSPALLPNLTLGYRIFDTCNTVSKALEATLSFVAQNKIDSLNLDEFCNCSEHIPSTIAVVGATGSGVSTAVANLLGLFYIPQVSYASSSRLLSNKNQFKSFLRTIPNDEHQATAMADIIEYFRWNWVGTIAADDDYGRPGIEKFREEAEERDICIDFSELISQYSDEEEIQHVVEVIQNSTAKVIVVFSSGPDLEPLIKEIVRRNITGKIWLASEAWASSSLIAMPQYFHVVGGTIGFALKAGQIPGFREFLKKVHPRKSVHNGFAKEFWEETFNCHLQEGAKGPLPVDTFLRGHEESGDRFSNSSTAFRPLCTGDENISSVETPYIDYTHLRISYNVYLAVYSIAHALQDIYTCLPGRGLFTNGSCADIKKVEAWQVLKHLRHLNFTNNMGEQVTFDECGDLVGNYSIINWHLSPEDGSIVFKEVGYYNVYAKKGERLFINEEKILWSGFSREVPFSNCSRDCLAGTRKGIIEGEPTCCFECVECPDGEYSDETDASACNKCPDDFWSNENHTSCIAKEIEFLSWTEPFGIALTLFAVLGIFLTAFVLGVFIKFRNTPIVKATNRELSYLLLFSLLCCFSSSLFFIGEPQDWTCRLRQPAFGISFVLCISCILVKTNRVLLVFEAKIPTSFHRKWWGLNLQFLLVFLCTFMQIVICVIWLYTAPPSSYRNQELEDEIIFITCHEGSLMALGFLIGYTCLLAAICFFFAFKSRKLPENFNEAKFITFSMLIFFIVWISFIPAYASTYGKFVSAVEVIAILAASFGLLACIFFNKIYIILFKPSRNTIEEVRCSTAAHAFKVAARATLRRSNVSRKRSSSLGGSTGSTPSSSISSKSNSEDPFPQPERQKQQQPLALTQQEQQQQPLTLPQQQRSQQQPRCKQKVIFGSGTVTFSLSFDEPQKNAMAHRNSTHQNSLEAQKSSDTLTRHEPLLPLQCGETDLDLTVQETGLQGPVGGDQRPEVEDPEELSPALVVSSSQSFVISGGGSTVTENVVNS
- experimental.protocol: Agonist activity on human calcium-sensing receptor (IP-One HTRF in stably transfected HEK293/CaSR cells)
- Type: cell-based
- condition.notes: HEK293/CaSR cells, IP-One production, 60 min at 37° C., CaCl2 1.2 mM; read-out: EC50 for calcium-sensing receptor
Square brackets hold non-standard residues; d marks the D form. Peptide text beside a SMILES is read from it. * marks the point of attachment. Cys(free,S-linked) = N[C@@H](CS*)C(=O)O; dPhe(2-Cl) = N[C@H](Cc1ccccc1Cl)C(=O)O; dChg = N[C@@H](C(=O)O)C1CCCCC1
Reported EC50 values for the following molecules.
Kindly answer with a numeric value in µM, unit omitted.

Solved cases below.
1) CC(=O)N[C@H](CSSC[C@H](N)C(=O)O)C(=O)N[C@H](Cc1ccccc1Cl)C(=O)N[C@H](CCCNC(=N)N)C(=O)N[C@H](CCCNC(=N)N)C(=O)N[C@H](CCCNC(=N)N)C(=O)N[C@H](C)C(=O)N[C@H](CCCNC(=N)N)C(N)=O [Compound 2, Ac-c(C)-[D-Phe(2-Cl)]-r-r-r-a-r-NH2] (Ac-[dC](Cys(free,S-linked))[dPhe(2-Cl)][dR][dR][dR][dA][dR]-NH2) :: 6.76
2) CC(=O)N[C@H](CSSC[C@H](N)C(=O)O)C(=O)N[C@H](CCCNC(=N)N)C(=O)N[C@H](CCCNC(=N)N)C(=O)N[C@@H](C(=O)N[C@H](CCCNC(=N)N)C(=O)NCC(=O)N[C@H](CCCNC(=N)N)C(N)=O)C1CCCCC1 [Compound 36, Ac-c(C)-r-r-(D-Chg)-r-G-r-NH2] (Ac-[dC](Cys(free,S-linked))[dR][dR][dChg][dR]G[dR]-NH2) :: 17.9

Name the recorded EC50 for CC(=O)N[C@H](CSSC[C@H](N)C(=O)O)C(=O)N[C@H](CCCNC(=N)N)C(=O)N[C@H](CCCNC(=N)N)C(=O)N[C@@H](C(=O)N[C@H](CCCNC(=N)N)C(=O)NCC(=O)N[C@H](CCCNC(=N)N)C(N)=O)C(C)C [Compound 30, Ac-c(C)-r-r-v-r-G-r-NH2] (Ac-[dC](Cys(free,S-linked))[dR][dR][dV][dR]G[dR]-NH2) .
19.6

====

- Test system: rat peritoneal mast cells
- experimental.protocol: In vitro histamine release in rat peritoneal mast cells (histamine ELISA)
- Format: cell-based
- condition.notes: test compound final concentration 10 μM, 15 min at 37° C., relative to PBS buffer (1.00)
Square brackets hold non-standard residues; d marks the D form. Peptide text beside a SMILES is read from it. * marks the point of attachment. dPhe(4-Me) = Cc1ccc(C[C@@H](N)C(=O)O)cc1; Cys(free,S-linked) = N[C@@H](CS*)C(=O)O; dPhe(2-Cl) = N[C@H](Cc1ccccc1Cl)C(=O)O; dPhg = N[C@@H](C(=O)O)c1ccccc1; dAbu = CC[C@@H](N)C(=O)O
Field 'label' (enum: Satisfied / Not satisfied). Set to Satisfied when Relative fold of histamine release in vitro is strictly under 2; else Not satisfied.

1. CC(=O)N[C@H](CSSC[C@H](N)C(=O)O)C(=O)N[C@H](Cc1ccc(O)cc1)C(=O)N[C@H](CCCNC(=N)N)C(=O)N[C@H](CCCNC(=N)N)C(=O)N[C@H](CCCNC(=N)N)C(=O)N[C@H](C)C(=O)N[C@H](CCCNC(=N)N)C(N)=O [Compound 4, Ac-c(C)-(D-Tyr)-r-r-r-a-r-NH2] (Ac-[dC](Cys(free,S-linked))[dY][dR][dR][dR][dA][dR]-NH2) :: Not satisfied
2. CC(=O)N[C@H](CSSC[C@H](N)C(=O)O)C(=O)N[C@@H](C(=O)N[C@H](CCCNC(=N)N)C(=O)N[C@H](CCCNC(=N)N)C(=O)N[C@H](CCCNC(=N)N)C(=O)N[C@H](C)C(=O)N[C@H](CCCNC(=N)N)C(N)=O)c1ccccc1 [Compound 1, Ac-c(C)-(D-Phg)-r-r-r-a-r-NH2] (Ac-[dC](Cys(free,S-linked))[dPhg][dR][dR][dR][dA][dR]-NH2) :: Satisfied
3. CC(=O)N[C@H](CSSC[C@H](N)C(=O)O)C(=O)N[C@H](CCCNC(=N)N)C(=O)N[C@H](CCCNC(=N)N)C(=O)N[C@H](Cc1ccc(C)cc1)C(=O)N[C@H](CCCNC(=N)N)C(=O)N[C@H](C)C(=O)N[C@H](CCCNC(=N)N)C(N)=O [Compound 12, Ac-c(C)-r-r-[D-Phe(4-CH3)]-r-a-r-NH2] (Ac-[dC](Cys(free,S-linked))[dR][dR][dPhe(4-Me)][dR][dA][dR]-NH2) :: Not satisfied
4. CC(=O)N[C@H](CSSC[C@H](N)C(=O)O)C(=O)N[C@H](Cc1ccccc1Cl)C(=O)N[C@H](CCCNC(=N)N)C(=O)N[C@H](CCCNC(=N)N)C(=O)N[C@H](CCCNC(=N)N)C(=O)N[C@H](C)C(=O)N[C@H](CCCNC(=N)N)C(N)=O [Compound 2, Ac-c(C)-[D-Phe(2-Cl)]-r-r-r-a-r-NH2] (Ac-[dC](Cys(free,S-linked))[dPhe(2-Cl)][dR][dR][dR][dA][dR]-NH2) :: Not satisfied

Hi there! Is Relative fold of histamine release in vitro for CC(=O)N[C@H](CSSC[C@H](N)C(=O)O)C(=O)N[C@H](CCCNC(=N)N)C(=O)N[C@H](CCCNC(=N)N)C(=O)N[C@@H](C(=O)N[C@H](CCCNC(=N)N)C(=O)NCC(=O)N[C@H](CCCNC(=N)N)C(N)=O)C(C)C [Compound 30, Ac-c(C)-r-r-v-r-G-r-NH2] (Ac-[dC](Cys(free,S-linked))[dR][dR][dV][dR]G[dR]-NH2) below 2, do you know?
Satisfied

Hi there! Is Relative fold of histamine release in vitro for CC[C@@H](NC(=O)[C@@H](CCCNC(=N)N)NC(=O)[C@@H](CCCNC(=N)N)NC(=O)[C@@H](CSSC[C@H](N)C(=O)O)NC(C)=O)C(=O)N[C@H](CCCNC(=N)N)C(=O)N[C@H](CO)C(=O)N[C@H](CCCNC(=N)N)C(N)=O [Compound 31, Ac-c(C)-r-r-(D-Abu)-r-s-r-NH2] (Ac-[dC](Cys(free,S-linked))[dR][dR][dAbu][dR][dS][dR]-NH2) below 2, do you know?
Satisfied

Hello, the source for this data is patent US20230041996A1, in case you need it.
